- protocol text: pH solubility
- Type: physicochemical
- test conditions: lower pH
measured quantity: pH Range where Protein is >80% detected as Soluble and A650 <1 OD: Low
Format: numeric value only, no unit, no commentary.

What pH Range where Protein is >80% detected as Soluble and A650 <1 OD: Low value was documented for this molecule, SEQID-00510: nutritive polypeptide naturally produced in Turkey, recombinantly expressed in E. coli (protein, Meleagris gallopavo, nutritive polypeptide naturally produced in Turkey, recombinantly expressed in E. coli) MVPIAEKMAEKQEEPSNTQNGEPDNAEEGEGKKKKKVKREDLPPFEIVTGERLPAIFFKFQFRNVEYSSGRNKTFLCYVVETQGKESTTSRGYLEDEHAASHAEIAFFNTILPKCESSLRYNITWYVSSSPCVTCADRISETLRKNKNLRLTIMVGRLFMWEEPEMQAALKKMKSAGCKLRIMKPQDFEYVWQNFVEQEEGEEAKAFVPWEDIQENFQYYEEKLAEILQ ?
6.5

What pH Range where Protein is >80% detected as Soluble and A650 <1 OD: Low value was documented for this molecule, SEQID-00265: nutritive polypeptide (protein, listed as Bos taurus) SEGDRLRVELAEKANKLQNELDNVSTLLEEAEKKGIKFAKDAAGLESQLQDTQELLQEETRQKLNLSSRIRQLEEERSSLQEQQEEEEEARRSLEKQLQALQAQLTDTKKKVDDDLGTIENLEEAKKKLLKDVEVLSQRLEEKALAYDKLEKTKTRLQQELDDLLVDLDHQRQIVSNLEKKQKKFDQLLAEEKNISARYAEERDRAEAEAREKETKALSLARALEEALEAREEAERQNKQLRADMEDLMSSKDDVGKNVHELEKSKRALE ?
5.1

What pH Range where Protein is >80% detected as Soluble and A650 <1 OD: Low value was documented for this molecule, SEQID-00287: nutritive polypeptide (protein, listed as Saccharomyces cerevisiae, source: /note="strain ATCC 204508 / S288c", nutritive polypeptide) LVLGALLDTSHKFRNLDKDLCEKCAKCISMIGVLDVTKHEFKRTTYSENEVYDLNDSVQTIKFLIWVINDILV ?
6.2

Now for the molecule whose pH Range where Protein is >80% detected as Soluble and A650 <1 OD: Low we want.
What pH Range where Protein is >80% detected as Soluble and A650 <1 OD: Low value was documented for this molecule, SEQID-00100: nutritive polypeptide (protein, listed as Lactobacillus acidophilus) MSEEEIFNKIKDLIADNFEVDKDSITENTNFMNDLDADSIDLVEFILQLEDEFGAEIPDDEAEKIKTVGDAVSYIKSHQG ?
4.3
